# subject_of_test: porcine pancreatic PLA2 (Sus scrofa, UniProt P00592)
# Construct: purchased Sigma
# Sequence (P00592 23-146): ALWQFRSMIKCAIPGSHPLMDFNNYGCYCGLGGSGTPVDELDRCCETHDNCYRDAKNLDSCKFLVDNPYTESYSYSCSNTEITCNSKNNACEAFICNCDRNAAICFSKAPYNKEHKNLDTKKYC
# experiment_description: MPLA2 assay: in vitro porcine pancreatic phospholipase A2, mixed micelle design, substrate 2 nM
# Assay type: biochemical
# stated_conditions: dose 10 μ/ml, subs. con. 2, read-out: % Inh.
Label scheme for inhibition at 10 µg/mL: lower than 40% is Not fulfilled, 40% and above is Fulfilled.

Some solved cases for reference:
# molecule, subject_of_test, answer_label
rows = [
    ("CCCCCCCCCCCCCCCCOCC(O)(COP(=O)([O-])OCC[N+](C)(C)C)CC(N)CC (stereo not drawn)", "porcine pancreatic PLA2 (Sus scrofa, UniProt P00592)", "Not fulfilled"),
    ("CCCCCCCCCCCCCCCCOCC(COP(=O)([O-])OCC[N+](C)(C)C)CSCCCCCCCCCCCCCCCC (stereo not drawn)", "porcine pancreatic PLA2 (Sus scrofa, UniProt P00592)", "Fulfilled"),
    ("CCCCCCCCCCCCCCCCOCC(COP(=O)([O-])OCC[N+](C)(C)C)OC(=O)C(Br)CCCCCCCCCCCCCCCC (stereo not drawn)", "porcine pancreatic PLA2 (Sus scrofa, UniProt P00592)", "Fulfilled"),
    ("CCCCCCCCCCCCCCCCSCCCOP(=O)([O-])OCC[N+](C)(C)C", "porcine pancreatic PLA2 (Sus scrofa, UniProt P00592)", "Fulfilled"),
    ("CCCCCCCCCCCCCCCCOCC(COP(=O)([O-])OCC[N+](C)(C)C)OC(=O)CBr (stereo not drawn)", "porcine pancreatic PLA2 (Sus scrofa, UniProt P00592)", "Fulfilled"),
    ("CCCCCCCCCCCCCCCCOCC(CC=NO)COP(=O)([O-])OCC[N+](C)(C)C (stereo not drawn)", "porcine pancreatic PLA2 (Sus scrofa, UniProt P00592)", "Not fulfilled"),
]

Query block: Could you please find out whether CCCCCCCCCCCCCCCCOCC(COP(=O)([O-])OCC[N+](C)(C)C)OC(=O)CCl (stereo not drawn) has inhibition at 10 µg/mL that meets 40% or exceeds it?
Result block: Fulfilled

Query block: Then this molecule: CCCCCCCCCCCCCCCCOCC(COP(=O)([O-])OCC[N+](C)(C)C)CP(=O)(OCC)OCC (stereo not drawn)
Result block: Not fulfilled

Query block: Then this molecule: CCCCCCCCCCCCCCCCOCC(COP(=O)([O-])OCC[N+](C)(C)C)CC(N)CCCCCCCCCCCCCCCC (stereo not drawn)
Result block: Not fulfilled

###

# subject_of_test: porcine pancreatic PLA2 (Sus scrofa, UniProt P00592)
# Construct: purchased Sigma
# experiment_description: MHPLA2 assay: in vitro porcine pancreatic phospholipase A2, mixed micelle design, [s]=10 μm
# Format: biochemical
# stated_conditions: dose 25 μ/ml, subs. con. 10, read-out: % Inh.
measured_attribute: inhibition at 25 µg/mL
Quick note: unit goes after the number.

Reference set, count: 7
# compound, inhibition at 25 µg/mL
records = [
    ("CCCCCCCCCCCCCCCC[S+]([O-])CCCOP(=O)([O-])OCC[N+](C)(C)C (centres unmarked)", "16%"),
    ("CCCCCCCCCCCCCCCCOCC(COP(=O)([O-])OCC[N+](C)(C)C)CB(O)O (centres unmarked)", "9%"),
    ("CCCCCCCCCCCCCCCCCC(=O)NCC(CO)COCCCCCCCCCCCCCCCC (centres unmarked)", "35%"),
    ("CCCCCCCCCCCCCCCCOCC(COP(=O)([O-])OCC[N+](C)(C)C)CS(=O)(=O)CCCCCCCCCCCCCCCC (centres unmarked)", "19%"),
    ("C=C(CC(COCCCCCCCCCCCCCCCC)COP(=O)([O-])OCC[N+](C)(C)C)C(F)(F)CCCCCCCCCCCCCCCC (centres unmarked)", "11%"),
    ("CCCCCCCCCCCCCCCCOCC(CC=NO)COP(=O)([O-])OCC[N+](C)(C)C (centres unmarked)", "28%"),
    ("CCCCCOCC(COP(=O)([O-])OCC[N+](C)(C)C)OP(=O)(O)OCCCCC (single isomer, unassigned; less polar)", "12%"),
]

# context switch: different compound, same inhibition at 25 µg/mL
Query block: Which inhibition at 25 µg/mL is reported for this compound? CCCCCCCCCCCCCCCC[C@]1(COP(=O)([O-])OCC[N+](C)(C)C)CC(=O)N1
Result block: 26%
